EXPERIMENT_DESCRIPTION: NCI Yeast Anticancer Drug Screen. Data for the rad50 strain (AID 155);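 note: 0% = growth of vehicle-only cultures of the same strain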
SETUP_CONDITIONS: S. cerevisiae rad50 strain growth inhibition; at 50.0 µM (retest, dose inferred, filed as 5.0); hits give high values
Compounds without any hit were thinned out: in the full panel of roughly 79,000, 15% have a hit. Calls of active or inactive are those of the source. Cut-off read from the data, not from the text of the source: active = growth inhibition above about 70%; inactive = the rest.
Recorded growth inhibition by entry

CC(C)(CN1CCCCC1)C(=O)CC(SCCS(=O)(=O)O)c1ccccc1 (centres undefined) : 7% (inactive)
O=C1C(=O)N(c2ccccc2)[C@@]2(c3ccccc3)C(=Nc3ccccc3)OC(c3ccccc3)=C12 : 4% (inactive)
S=C1C(=Nc2ccccc2)N(c2ccccc2)/C(=N\c2ccccn2)N1c1ccccc1 : 97% (active)
CO[C@@]1([C@@H](Cl)c2ccccc2)C(=O)N(C)/C(=C\c2ccccc2)C(=O)N1C : 14% (inactive)
COc1cc([C@@H]2c3cc4c(cc3[C@@H](NC(=O)NO)[C@H]3COC(=O)[C@H]23)OCO4)cc(OC)c1O : 79% (active)
C[n+]1c(-c2ccc(/C=N/NC(=O)c3ccc(C(=O)N/N=C/c4ccc(-c5cn6ccccc6[n+]5C)cc4)cc3)cc2)cn2ccccc21 : 92% (active)
Cc1cccc2c(Cl)c3cccc(C)c3nc12 : 75% (active)
O=C(c1ccccc1)[C@H]1Nc2ccc(Cl)cc2[C@H]2OCCC[C@@H]12 : 4% (inactive)

Proceed to the following item.
Q) Give the measured growth inhibition of `O=C1Nc2ccc(Br)cc2C1=Nc1cccnc1` .
A) 49% (inactive)
